These data points were gathered from patent US7375222B2.

Where a name gives a salt, the structure may show the parent alone.
Listed here: items and their measured melting point.

Molecule: O=C1OCCC1CNc1nc(Nc2ccccc2)nc(Nc2ccccc2)n1 (stereo not shown) (as salt: HCl) (hydrate or solvate) [compound 24]
melting point: 138 to 140 °C
//
Molecule: COCCNc1nc(Nc2ccccc2)nc(Nc2ccccc2)n1 [compound 17]
melting point: 128 to 129 °C
//
Molecule: OCCCNc1nc(Nc2ccccc2)nc(Nc2ccccc2)n1 (as salt: HCl) [compound 21]
melting point: 191 to 192 °C
//
Molecule: Fc1ccc(Nc2nc(NCc3ccccc3)nc(Nc3ccc(F)cc3)n2)cc1 (as salt: HCl) (hydrate or solvate) [compound 28]
melting point: 176 to 178 °C
//
Molecule: CCCCCNc1nc(Nc2ccccc2)nc(Nc2ccccc2)n1 [compound 14]
melting point: 78 to 81 °C
//
Molecule: COCCCNc1nc(Nc2ccccc2)nc(Nc2ccccc2)n1 (as salt: HCl) [compound 18]
melting point: 154 to 155 °C
//
Molecule: OCCCCCNc1nc(Nc2ccccc2)nc(Nc2ccc(F)cc2)n1 (as salt: HCl) [Example 776]
melting point: 178 to 180 °C
//
Molecule: COCCNc1nc(Nc2ccc(F)cc2)nc(Nc2ccc(F)cc2)n1 (as salt: HCl) [compound 35]
melting point: 175 to 176 °C
//
Molecule: Fc1ccc(Nc2nc(NCc3ccnc(F)c3)nc(Nc3ccc(F)cc3)n2)cc1 (as salt: HCl) [Example 743]
melting point: 191 to 192 °C
//
Molecule: COCCNc1nc(Nc2ccccc2)nc(Nc2ccc(F)cc2)n1 (as salt: HCl) [Example 771]
melting point: 179 to 181 °C
//
Molecule: OCCOCCNc1nc(Nc2ccccc2)nc(Nc2ccc(F)cc2)n1 (as salt: HCl) [Example 777]
melting point: 141 to 142 °C
//
Molecule: Fc1ccc(Nc2nc(NCc3ccco3)nc(Nc3ccc(F)cc3)n2)cc1 (as salt: HCl) [compound 30]
melting point: 179 to 180 °C
//
Molecule: Fc1ccc(Nc2nc(NCc3cccs3)nc(Nc3ccc(F)cc3)n2)cc1 (as salt: HCl) [compound 31]
melting point: 180 to 182 °C
//
Molecule: c1ccc(Nc2nc(NCC3CCOCC3)nc(Nc3ccccc3)n2)cc1 (as salt: salt) (hydrate or solvate) [Example 741]
melting point: 191 to 193 °C
//
Molecule: OCCNc1nc(Nc2ccccc2)nc(Nc2ccc(F)cc2)n1 (as salt: HCl) [Example 773]
melting point: 209 to 211 °C
//
Molecule: C#CCNc1nc(Nc2ccccc2)nc(Nc2ccccc2)n1 (as salt: HCl) [compound 16]
melting point: 195 to 197 °C
